Tested on: Escherichia coli TOP10;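 also: peptides expressed intracellularly from a pBAD plasmid library in pooled LB shake-flask culture, induced with 0.3% L-arabinose, DNA abundance read by NGS, three biological replicates, DESeq2 with apeglm shrinkage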
method notes: shrunken log2 fold change of peptide-encoding DNA abundance (4.5 h post-induction vs induction); higher = less antimicrobial activity (less host growth inhibition)
condition description: time post-induction: 4.5 h; library: site-saturation at positions 5, 18, 19, 20
readout: shrunken log2 fold change

shrunken log2 fold change reported for this sequence RRIRMRPPRLPRPRPRPGHEPRP : 0.086

Kindly note the recorded shrunken log2 fold change for RRIRDRPPRLPRPRPRPPWPPRP , which is 0.654

For RRIRNRPPRLPRPRPRPISDPRP the sequence record lists shrunken log2 fold change as -0.0335

# shrunken log2 fold change (sequence: RRIRRRPPRLPRPRPRPGAPPRP ) is 0.891

Per the records, this sequence ( RRIRSRPPRLPRPRPRPMPKPRP ) has shrunken log2 fold change equal to 0.0763

Recorded shrunken log2 fold change (sequence RRIRKRPPRLPRPRPRPHILPRP ): 0.0523

Measured shrunken log2 fold change, RRIRMRPPRLPRPRPRPRTIPRP : 0.229

RRIRGRPPRLPRPRPRPTDFPRP yielded shrunken log2 fold change of 0.161

RRIRWRPPRLPRPRPRPGHWPRP yielded shrunken log2 fold change of 0.335

The sequence listed as RRIRDRPPRLPRPRPRPCFDPRP has a reported shrunken log2 fold change of 0.581

# shrunken log2 fold change of RRIRHRPPRLPRPRPRPIFIPRP = -0.372

The sequence identified as RRIRLRPPRLPRPRPRPECNPRP registered its shrunken log2 fold change at -0.0178

// RRIRPRPPRLPRPRPRPFCPPRP : shrunken log2 fold change value = -0.345

Recorded shrunken log2 fold change (sequence RRIRGRPPRLPRPRPRPLDKPRP ): 0.401

get_value(item= RRIRNRPPRLPRPRPRPSRNPRP , readout=shrunken log2 fold change) returns 0.0074

So, RRIRVRPPRLPRPRPRPQWPPRP ? Its shrunken log2 fold change was 0.336

For RRIRIRPPRLPRPRPRPKCHPRP the sequence record lists shrunken log2 fold change as -0.199

Notebook: RRIRTRPPRLPRPRPRPGMQPRP , shrunken log2 fold change read as -0.0474

// shrunken log2 fold change value for RRIRVRPPRLPRPRPRPQEVPRP : -0.186

Summary for this sequence, RRIRMRPPRLPRPRPRPSWPPRP : shrunken log2 fold change is 0.144

For record RRIRHRPPRLPRPRPRPKFYPRP the listed shrunken log2 fold change is -0.148

shrunken log2 fold change reading for RRIRERPPRLPRPRPRPRLIPRP : -0.635

Quick note, shrunken log2 fold change for RRIRNRPPRLPRPRPRPPLSPRP landed at 0.502

Documented shrunken log2 fold change of RRIRPRPPRLPRPRPRPKIKPRP : -0.0894

// recorded shrunken log2 fold change for RRIRWRPPRLPRPRPRPRYMPRP : -0.139

// RRIRERPPRLPRPRPRPYTKPRP : shrunken log2 fold change value = -0.277

Consider RRIRPRPPRLPRPRPRPLFNPRP . Its measured shrunken log2 fold change is -0.444

Looking up RRIRARPPRLPRPRPRPAWKPRP , I see its shrunken log2 fold change listed as 0.398

get_value(item= RRIRIRPPRLPRPRPRPMSAPRP , readout=shrunken log2 fold change) returns -0.205

Kindly note the recorded shrunken log2 fold change for RRIRCRPPRLPRPRPRPNKEPRP , which is -0.189

Measured shrunken log2 fold change of RRIRKRPPRLPRPRPRPRPGPRP : 0.721

Form: sequence = RRIRCRPPRLPRPRPRPGKAPRP ; shrunken log2 fold change = 0.00811
